# Tested on: Enterobacteria phage lambda
# testProtocol: Induction of Lambda phage supercoiled circular pBluescript KS II DNA cleavage assessed as single-stranded nick formation at 1000 uM preincubated for 30 mins followed by UV light irradiation under aerobic condition measured after 15 mins by agarose gel electrophoresis
1.0 if Activity is below 70%. 0.0 if not; exact matches included in 0.0.

// below: answered molecules
NC(=NOC(=O)c1ccc([N+](=O)[O-])cc1)c1cccnc1 | 1.0
COc1ccc(C(=O)O/N=C(\N)c2cccnc2)cc1 | 1.0
O=C(O/N=C/c1ccncc1)c1ccc([N+](=O)[O-])cc1 | 1.0

Data request: Could you please tell me whether Activity recorded for `N/C(=N\OC(=O)c1ccc([N+](=O)[O-])cc1)c1ccncc1` is less than 70%?
Data returned: 1.0

Data request: Check if Activity falls below 70% for `O=C(O/N=C/c1ccccn1)c1ccc([N+](=O)[O-])cc1` .
Data returned: 0.0

Data request: Activity strictly < 70% for this molecule? `NC(=NOC(=O)c1ccc([N+](=O)[O-])cc1)c1ccccn1`
Data returned: 0.0

Data request: # TODO verify Activity < 70% strictly for this molecule: `COc1ccc(C(=O)O/N=C/c2cccnc2)cc1`
Data returned: 1.0

Cited source: ChEMBL document CHEMBL3632533
